target: acetylcholinesterase (AChE) isolated from Electrophorus electricus (Electrophorus electricus, UniProt O42275); construct: AChE isolated from Electrophorus electricus; from tissue; test: biochemical; conditions: AChE IC50
Sequence (O42275 24-633): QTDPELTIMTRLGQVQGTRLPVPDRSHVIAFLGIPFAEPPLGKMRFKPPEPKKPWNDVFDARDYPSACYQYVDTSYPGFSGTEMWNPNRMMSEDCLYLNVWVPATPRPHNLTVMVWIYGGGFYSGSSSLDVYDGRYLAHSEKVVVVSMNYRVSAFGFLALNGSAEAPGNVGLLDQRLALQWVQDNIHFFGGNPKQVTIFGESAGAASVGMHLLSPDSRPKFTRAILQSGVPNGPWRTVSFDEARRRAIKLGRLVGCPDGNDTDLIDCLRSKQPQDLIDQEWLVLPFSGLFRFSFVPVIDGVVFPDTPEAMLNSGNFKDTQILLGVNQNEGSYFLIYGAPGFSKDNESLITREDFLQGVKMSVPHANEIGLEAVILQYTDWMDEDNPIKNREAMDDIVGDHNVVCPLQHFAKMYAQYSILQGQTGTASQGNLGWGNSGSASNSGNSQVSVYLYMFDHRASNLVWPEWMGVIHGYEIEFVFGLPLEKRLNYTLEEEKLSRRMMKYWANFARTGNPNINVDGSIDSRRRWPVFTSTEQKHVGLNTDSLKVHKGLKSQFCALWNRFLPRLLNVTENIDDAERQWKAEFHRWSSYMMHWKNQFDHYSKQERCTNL
Listed compounds paired with reported IC50

compound	IC50
CCC(C)C(=O)N[C@H]1CC=C2C[C@H]3C(=O)C[C@]4(C)[C@@H]([C@H](C)N(C)C)[C@H](O)C[C@@]4(C)[C@@H]3CC[C@H]2[C@]1(C)CO (mixture of isomers) [Compound 7h]	120 nM
CC[C@H](C)C(=O)N[C@H]1CC=C2C[C@H]3C(=O)C[C@]4(C)[C@@H]([C@H](C)N(C)C)[C@H](OC(C)=O)C[C@@]4(C)[C@@H]3CC[C@H]2[C@]1(C)CO	7940 nM
CC(=O)O[C@@H]1C[C@@]2(C)[C@@H]3CC[C@@H]4C(=CC[C@@H]5N=C(C(C)C)OC[C@]54C)C[C@H]3C(=O)C[C@]2(C)[C@H]1[C@H](C)N(C)C	112 nM
CCC(C)C(=O)N[C@H]1CC=C2C[C@H]3C(=O)C[C@]4(C)[C@@H]([C@H](C)N(C)C)[C@H](O)C[C@@]4(C)[C@@H]3CC[C@H]2[C@]1(C)CO (some centres unmarked) [Compound 7e]	105 nM
CC(C)C(=O)NC1CC[C@]23CC24C(=O)C[C@]2(C)[C@@H]([C@H](C)N(C)C)[C@H](O)C[C@@]2(C)[C@@H]4CC[C@H]3[C@]1(C)CO (stereo in doubt)	> 10000 nM

---

biological target: human serum butyrylcholinesterase (BChE) (Homo sapiens, UniProt P06276); construct: BChE isolated from human serum; from tissue; host or cells: human serum; experiment: biochemical; conditions: human serum BChE; read-out: BChE
Sequence (P06276 29-602): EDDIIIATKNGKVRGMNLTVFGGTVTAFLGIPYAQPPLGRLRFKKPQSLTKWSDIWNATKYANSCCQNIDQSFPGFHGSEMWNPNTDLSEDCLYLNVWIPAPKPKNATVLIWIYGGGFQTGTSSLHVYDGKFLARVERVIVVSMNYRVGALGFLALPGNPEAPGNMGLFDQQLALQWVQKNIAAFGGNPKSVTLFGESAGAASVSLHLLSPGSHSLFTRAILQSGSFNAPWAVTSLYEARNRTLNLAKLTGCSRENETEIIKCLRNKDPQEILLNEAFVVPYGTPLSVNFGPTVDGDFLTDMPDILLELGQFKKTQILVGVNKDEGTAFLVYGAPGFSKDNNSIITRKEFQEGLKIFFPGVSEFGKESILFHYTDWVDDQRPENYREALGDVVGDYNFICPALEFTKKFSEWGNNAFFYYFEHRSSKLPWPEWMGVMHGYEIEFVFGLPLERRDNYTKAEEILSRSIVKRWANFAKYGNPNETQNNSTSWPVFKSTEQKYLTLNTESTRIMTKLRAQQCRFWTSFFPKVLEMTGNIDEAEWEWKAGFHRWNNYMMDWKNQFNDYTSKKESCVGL
pIC50: −log10 of the molar value.
Listed compounds paired with reported pIC50
metric: pIC50

compound	metric	qual	numeric-value
C[C@@H]([C@H]1[C@H](O)C[C@@]2(C)[C@@H]3CC[C@@H]4C5(CC[C@H](N)[C@@]4(C)CO)C[C@@]35[C@@H](O)C[C@]12C)N(C)C (stereo partly shown)	pIC50	=	5.61
CCC(C)C(=O)N[C@H]1CCC23C[C@]24C(=O)C[C@]2(C)[C@@H]([C@H](C)N(C)C)[C@H](O)C[C@@]2(C)[C@@H]4CC[C@H]3[C@]1(C)CO (stereo partly shown)	pIC50	=	6.92
C[C@@H]([C@H]1[C@H](O)C[C@@]2(C)[C@@H]3CC[C@H]4[C@](C)(CO)[C@@H](NC(=O)c5ccccc5)CC[C@@]45CC35C(=O)C[C@]12C)N(C)C (stereo partly shown)	pIC50	=	5.65
CCC(C)C(=O)N[C@H]1CC=C2C[C@H]3C(=O)C[C@]4(C)[C@@H]([C@H](C)N(C)C)[C@H](O)C[C@@]4(C)[C@@H]3CC[C@H]2[C@]1(C)CO (stereo partly shown) [Compound 7e]	pIC50	<	5.00
CC(C)C1=NC2CC=C3C[C@H]4C(=O)C[C@]5(C)[C@@H]([C@H](C)N(C)C)[C@H](O)C[C@@]5(C)[C@@H]4CC[C@H]3[C@]2(C)CO1 (stereo partly shown)	pIC50	<	6.00
C[C@@H]([C@H]1[C@H](O)C[C@@]2(C)[C@@H]3CC[C@@H]4C(=CC[C@H](NC(=O)C5CCCCC5)[C@@]4(C)CO)C[C@H]3C(=O)C[C@]12C)N(C)C	pIC50	=	5.40
C[C@@H]([C@H]1[C@H](O)C[C@@]2(C)[C@@H]3CC[C@@H]4C(=CC[C@H](NC(=O)c5ccccc5)[C@@]4(C)CO)C[C@H]3C(=O)C[C@]12C)N(C)C	pIC50	=	5.73
C[C@@H]([C@H]1[C@H](O)C[C@@]2(C)[C@@H]3CC[C@@H]4C(=CC[C@@H]5N=C(Cc6ccccc6)OC[C@]54C)C[C@H]3C(=O)C[C@]12C)N(C)C	pIC50	<	5.00
CC(C)C(=O)N[C@H]1CCC23C[C@]24C(=O)C[C@]2(C)[C@@H]([C@H](C)N(C)C)[C@H](O)C[C@@]2(C)[C@@H]4CC[C@H]3[C@]1(C)COCc1ccccc1 (stereo partly shown)	pIC50	=	5.28
C[C@@H]([C@H]1[C@H](O)C[C@@]2(C)[C@@H]3CC[C@@H]4C5(CC[C@H](NC(=O)C6CCCCC6)[C@@]4(C)CO)C[C@@]35C(=O)C[C@]12C)N(C)C (stereo partly shown)	pIC50	<	5.30
CCC(=O)N[C@H]1CC=C2C[C@H]3C(=O)C[C@]4(C)[C@@H]([C@H](C)N(C)C)[C@H](O)C[C@@]4(C)[C@@H]3CC[C@H]2[C@]1(C)CO	pIC50	<	5.00
CC[C@H](C)C1=N[C@H]2CC=C3C[C@H]4C(=O)C[C@]5(C)[C@@H]([C@H](C)N(C)C)[C@H](O)C[C@@]5(C)[C@@H]4CC[C@H]3[C@]2(C)CO1	pIC50	<	6.00
C[C@@H]([C@H]1[C@H](O)C[C@@]2(C)[C@@H]3CC[C@H]4[C@](C)(CO)[C@@H](N)CC[C@@]45CC35C(=O)C[C@]12C)N(C)C (stereo partly shown)	pIC50	<	4.52
CC(C)C(=O)N[C@H]1CCC23C[C@]24C(=O)C[C@]2(C)[C@@H]([C@H](C)N(C)C)[C@H](OC(=O)C(C)(C)C)C[C@@]2(C)[C@@H]4CC[C@H]3[C@]1(C)/C=N/Cc1ccccc1 (stereo partly shown)	pIC50	=	5.89
CC(=O)O[C@@H]1C[C@@]2(C)[C@@H]3CC[C@@H]4C5(CC[C@H](NC(=O)C(C)C)[C@@]4(C)C=O)C[C@@]35C(=O)C[C@]2(C)[C@H]1[C@H](C)N(C)C (stereo partly shown)	pIC50	<	6.00
C[C@@H]([C@H]1[C@H](O)C[C@@]2(C)[C@@H]3CC[C@@H]4C(=CC[C@@H]5N=C(C6CCCCC6)OC[C@]54C)C[C@H]3C(=O)C[C@]12C)N(C)C	pIC50	=	6.43
CC(C)C(=O)N[C@H]1CC=C2C[C@H]3C(=O)C[C@]4(C)[C@@H]([C@H](C)N(C)C)[C@H](O)C[C@@]4(C)[C@@H]3CC[C@H]2[C@]1(C)CO	pIC50	=	5.13
CCC(C)C1=N[C@H]2CC=C3C[C@H]4C(=O)C[C@]5(C)[C@@H]([C@H](C)N(C)C)[C@H](O)C[C@@]5(C)[C@@H]4CC[C@H]3[C@]2(C)CO1 (mixture of isomers)	pIC50	=	5.81
CCC(CC)C1=N[C@H]2CC=C3C[C@H]4C(=O)C[C@]5(C)[C@@H]([C@H](C)N(C)C)[C@H](O)C[C@@]5(C)[C@@H]4CC[C@H]3[C@]2(C)CO1	pIC50	=	6.42

---

target: human serum butyrylcholinesterase (BChE) (Homo sapiens); construct: BChE isolated from human serum; from tissue; host or cells: human serum; assay: biochemical; conditions: human serum BChE; read-out: BChE
pIC50: −log10 of the molar value.
metric: pIC50

compound	result
CC(=O)O[C@@H]1C[C@@]2(C)[C@@H]3CC[C@@H]4C5(CC[C@H](NC(=O)C(C)C)[C@@]4(C)CO)C[C@@]35C(=O)C[C@]2(C)[C@H]1[C@H](C)N(C)C (stereo partly drawn) [Compound 13]	< 6.00
CC(C)C(=O)N[C@H]1CCC23C[C@]24C(=O)C[C@]2(C)[C@@H]([C@H](C)[N+](C)(C)[O-])[C@H](O)C[C@@]2(C)[C@@H]4CC[C@H]3[C@]1(C)CO (stereo partly drawn) [Compound 29]	< 6.00
CC(=O)O[C@@H]1C[C@@]2(C)[C@@H]3CC[C@@H]4C5(CC[C@H](NC(=O)C(C)C)[C@@]4(C)COS(=O)(=O)c4ccc(C)cc4)C[C@@]35C(=O)C[C@]2(C)[C@H]1[C@H](C)N(C)C (stereo partly drawn) [Compound 23]	< 4.00

---

target: acetylcholinesterase (AChE) isolated from Electrophorus electricus (Electrophorus electricus, UniProt O42275); construct: AChE isolated from Electrophorus electricus; from tissue; assay: biochemical; settings: AChE IC50

compound	IC50
CC(C)C1=N[C@H]2CC=C3C[C@H]4C(=O)C[C@]5(C)[C@@H]([C@H](C)N(C)C)[C@H](OC(=O)C(C)(C)C)C[C@@]5(C)[C@@H]4CC[C@H]3[C@]2(C)CO1	198 nM
CC(C)C1=NC2CCC34C[C@]35C(=O)C[C@]3(C)[C@@H]([C@H](C)N(C)C)[C@H](O)C[C@@]3(C)[C@@H]5CC[C@H]4[C@]2(C)CN1 (stereo partly drawn)	18 nM
CC(C)C(=O)N[C@H]1CCC23C[C@]24C(=O)C[C@]2(C)[C@@H]([C@H](C)N(C)C)[C@H](O)C[C@@]2(C)[C@@H]4CC[C@H]3[C@]1(C)CN (stereo partly drawn)	1340 nM
